Assay system: Microtubule-associated protein tau (Homo sapiens, UniProt P10636)
Sequence (P10636 whole entry, the tested form may be a part): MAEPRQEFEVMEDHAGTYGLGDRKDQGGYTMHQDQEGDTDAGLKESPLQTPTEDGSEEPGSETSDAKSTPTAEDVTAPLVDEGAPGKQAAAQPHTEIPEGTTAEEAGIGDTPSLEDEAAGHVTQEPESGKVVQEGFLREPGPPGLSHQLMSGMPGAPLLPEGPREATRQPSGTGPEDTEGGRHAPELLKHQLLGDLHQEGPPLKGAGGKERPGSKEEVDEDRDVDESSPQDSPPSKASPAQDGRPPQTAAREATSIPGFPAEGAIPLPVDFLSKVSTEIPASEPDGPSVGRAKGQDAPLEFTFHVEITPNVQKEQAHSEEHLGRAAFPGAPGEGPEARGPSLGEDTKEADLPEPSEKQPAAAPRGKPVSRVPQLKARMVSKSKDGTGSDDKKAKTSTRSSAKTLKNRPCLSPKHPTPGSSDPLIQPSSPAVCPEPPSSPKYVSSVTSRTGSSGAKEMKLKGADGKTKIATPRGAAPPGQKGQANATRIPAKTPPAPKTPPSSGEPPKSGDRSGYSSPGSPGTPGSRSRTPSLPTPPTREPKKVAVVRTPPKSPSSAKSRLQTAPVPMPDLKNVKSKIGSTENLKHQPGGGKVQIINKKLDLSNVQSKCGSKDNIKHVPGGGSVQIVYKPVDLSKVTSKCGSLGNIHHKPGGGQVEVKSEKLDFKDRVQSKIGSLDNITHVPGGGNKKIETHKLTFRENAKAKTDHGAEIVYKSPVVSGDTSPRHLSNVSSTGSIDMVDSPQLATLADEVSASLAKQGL
Assay notes: Inhibition of recombinant human TAU three-repeat microtubule-binding domain aggregation expressed in Escherichia coli after 16 hrs by thioflavin T fluorescence assay

- Smiles string: "COc1cc(/C=C/C(=O)CC(=O)/C=C/c2cccnc2)ccc1O"
  Assay system: "Microtubule-associated protein tau (Homo sapiens, UniProt P10636)"
  IC50: "> 10000 nM"
- Smiles string: "COc1cc(/C=C/C(=O)CC(=O)/C=C/c2cc(O)ccc2OC)ccc1O"
  Assay system: "Microtubule-associated protein tau (Homo sapiens, UniProt P10636)"
  IC50: "600 nM"
- Smiles string: "COc1cc(/C=C/C(=O)CC(=O)/C=C/c2ccc3cc[nH]c3c2)ccc1O"
  Assay system: "Microtubule-associated protein tau (Homo sapiens, UniProt P10636)"
  IC50: "440 nM"
- Smiles string: "COc1cc(OCc2ccccn2)ccc1/C=C/c1cc(/C=C/c2ccc3cc[nH]c3c2)[nH]n1"
  Assay system: "Microtubule-associated protein tau (Homo sapiens, UniProt P10636)"
  IC50: "660 nM"
- Smiles string: "COc1cc(/C=C/C(=O)CC(=O)/C=C/c2c(O)cccc2OC)ccc1O"
  Assay system: "Microtubule-associated protein tau (Homo sapiens, UniProt P10636)"
  IC50: "910 nM"
- Smiles string: "COc1cc(O)ccc1/C=C/C(=O)CC(=O)/C=C/c1ccc(O)cc1OC"
  Assay system: "Microtubule-associated protein tau (Homo sapiens, UniProt P10636)"
  IC50: "> 10000 nM"

---

Assay system: Amyloid-beta precursor protein (Homo sapiens, UniProt P05067)
Sequence (P05067 whole entry, the tested form may be a part): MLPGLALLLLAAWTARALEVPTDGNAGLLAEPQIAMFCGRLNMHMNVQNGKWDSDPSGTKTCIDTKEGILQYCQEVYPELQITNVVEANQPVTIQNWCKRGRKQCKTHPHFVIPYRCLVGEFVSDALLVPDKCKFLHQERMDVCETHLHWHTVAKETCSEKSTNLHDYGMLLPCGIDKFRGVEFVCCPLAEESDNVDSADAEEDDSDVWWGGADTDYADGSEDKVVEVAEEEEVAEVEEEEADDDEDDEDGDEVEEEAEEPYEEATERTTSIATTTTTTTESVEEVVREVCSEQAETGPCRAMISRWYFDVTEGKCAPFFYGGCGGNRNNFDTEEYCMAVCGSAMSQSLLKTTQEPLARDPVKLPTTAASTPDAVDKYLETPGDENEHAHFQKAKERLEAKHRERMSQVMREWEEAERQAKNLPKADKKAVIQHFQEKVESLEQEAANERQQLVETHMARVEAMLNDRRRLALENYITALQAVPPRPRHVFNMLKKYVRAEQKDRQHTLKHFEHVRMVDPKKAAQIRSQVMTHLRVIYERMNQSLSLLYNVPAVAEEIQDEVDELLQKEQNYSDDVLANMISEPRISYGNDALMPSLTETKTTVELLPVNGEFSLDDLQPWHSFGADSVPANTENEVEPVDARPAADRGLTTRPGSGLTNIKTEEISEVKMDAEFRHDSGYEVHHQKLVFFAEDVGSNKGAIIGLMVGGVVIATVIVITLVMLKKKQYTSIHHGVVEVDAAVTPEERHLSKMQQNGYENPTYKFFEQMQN
Assay notes: Inhibition of amyloid beta (1 to 42 residues) (unknown origin) aggregation after 24 hrs by thioflavin T fluorescence assay
Each item that follows carries a reported IC50.

- Molecule: "COc1cc(/C=C/C(=O)CC(=O)/C=C/c2cccnc2)ccc1O"
  Assay system: "Amyloid-beta precursor protein (Homo sapiens, UniProt P05067)"
  Bound operator: ">"
  IC50 / µM: 10
- Molecule: "COc1cc(OCC2CCCO2)ccc1/C=C/C(=O)CC(=O)/C=C/c1ccc2cc[nH]c2c1 (stereo not drawn)"
  Assay system: "Amyloid-beta precursor protein (Homo sapiens, UniProt P05067)"
  Bound operator: "="
  IC50 / µM: 2.5
- Molecule: "COc1cc(/C=C/C(=O)CC(=O)/C=C/c2ccc3ccccc3c2)ccc1O"
  Assay system: "Amyloid-beta precursor protein (Homo sapiens, UniProt P05067)"
  Bound operator: "="
  IC50 / µM: 0.59
- Molecule: "COc1cc(/C=C/C(=O)CC(=O)/C=C/c2ccc3c(c2)OCO3)ccc1O"
  Assay system: "Amyloid-beta precursor protein (Homo sapiens, UniProt P05067)"
  Bound operator: "="
  IC50 / µM: 3.7
- Molecule: "COc1cc(/C=C/C(=O)CC(=O)/C=C/c2c(O)cccc2OC)ccc1O"
  Assay system: "Amyloid-beta precursor protein (Homo sapiens, UniProt P05067)"
  Bound operator: "="
  IC50 / µM: 1.6
- Molecule: "COc1cc(/C=C/C(=O)CC(=O)/C=C/c2ccccc2)ccc1O"
  Assay system: "Amyloid-beta precursor protein (Homo sapiens, UniProt P05067)"
  Bound operator: "="
  IC50 / µM: 2.2
- Molecule: "COc1cc(/C=C/C(=O)CC(=O)/C=C/c2cccc(OC)c2O)ccc1O"
  Assay system: "Amyloid-beta precursor protein (Homo sapiens, UniProt P05067)"
  Bound operator: "="
  IC50 / µM: 5.4
- Molecule: "COc1cc(OCc2ccccn2)ccc1/C=C/c1cc(/C=C/c2ccc3cc[nH]c3c2)[nH]n1"
  Assay system: "Amyloid-beta precursor protein (Homo sapiens, UniProt P05067)"
  Bound operator: "="
  IC50 / µM: 1.2
- Molecule: "COc1cc(O)cc(/C=C/C(=O)CC(=O)/C=C/c2ccc(O)c(OC)c2)c1"
  Assay system: "Amyloid-beta precursor protein (Homo sapiens, UniProt P05067)"
  Bound operator: "="
  IC50 / µM: 1.1
- Molecule: "COc1cc(O)ccc1/C=C/C(=O)CC(=O)/C=C/c1ccc(O)cc1OC"
  Assay system: "Amyloid-beta precursor protein (Homo sapiens, UniProt P05067)"
  Bound operator: "="
  IC50 / µM: 4.6
- Molecule: "COc1cc(OCc2ccccn2)ccc1/C=C/C(=O)CC(=O)/C=C/c1ccc2cc[nH]c2c1"
  Assay system: "Amyloid-beta precursor protein (Homo sapiens, UniProt P05067)"
  Bound operator: "="
  IC50 / µM: 0.47
- Molecule: "COc1cc(/C=C/C(=O)CC(=O)/C=C/c2cc(O)ccc2OC)ccc1O"
  Assay system: "Amyloid-beta precursor protein (Homo sapiens, UniProt P05067)"
  Bound operator: "="
  IC50 / µM: 1.3
- Molecule: "COc1ccc(/C=C/C(=O)CC(=O)/C=C/c2ccc(O)c(OC)c2)cc1O"
  Assay system: "Amyloid-beta precursor protein (Homo sapiens, UniProt P05067)"
  Bound operator: "="
  IC50 / µM: 2.1
